Protocol Summary: GSK inMac assay, host cell toxicity readout (LD MAC)
Assay type: cell-based, human
Run Parameters: human; footnote c; read-out: THP-1 Host Cell CC50
# CC50 annotations
Outcome Measure: CC50

molecule="CC(C)Cc1n[nH]c2c1C(c1ccc(F)cc1)N(CCN1CCCC1)C2=O (stereo not drawn)" assay_value="> 50 µM"
molecule="COc1ccc(N2C(=O)c3[nH]nc(CC(C)C)c3C2c2ccncc2)cc1 (stereo not drawn)" assay_value="> 50 µM"
molecule="CC(C)Cc1n[nH]c2c1C(c1ccc(F)cc1)N(C1CCOCC1)C2=O (stereo not drawn)" assay_value="> 50 µM"

* * *

Listed here: items and their measured EC50.
Test system: HepG2 cells
Protocol Summary: HepG2 cytotoxicity
Assay type: cell-based
Run Parameters: Homo sapiens; toxicity against HepG2 cells
Outcome Measure: EC50

compound="COc1ccc(N2C(=O)c3[nH]nc(CC(C)C)c3C2c2nccs2)cc1 (stereo not drawn)" assay_value="> 100 µM"
compound="COc1ccc(N2C(=O)c3[nH]nc(CC(C)C)c3C2c2ccnnc2)cc1 (stereo not drawn)" assay_value="> 100 µM"
compound="COc1ccc(N2C(=O)c3[nH]nc(CC(C)C)c3C2c2ccc(OC)nc2)cc1 (stereo not drawn)" assay_value="> 100 µM"

* * *

Protocol Summary: Property forecast index (PFI = ChromLogD7.4 + aromatic rings)
Assay type: physicochemical
Outcome Measure: PFI

compound="CC(C)Cc1n[nH]c2c1C(c1ccc(F)cc1)N(c1ccc(F)cc1)C2=O (stereo not shown)" outcome_measure=PFI assay_value=8.8
compound="COc1cc(F)ccc1C1c2c(CC(C)C)n[nH]c2C(=O)N1c1ccc(N(C)C)cc1 (stereo not shown)" outcome_measure=PFI assay_value=8.8
compound="COc1ccc(N2C(=O)c3[nH]nc(CC(C)C)c3C2c2ccc(Cl)cc2)cc1 (stereo not shown)" outcome_measure=PFI assay_value=9.2
compound="COc1ccc(N2C(=O)c3[nH]nc(CCC(C)C)c3C2c2ccc(F)cc2)cc1 (stereo not shown)" outcome_measure=PFI assay_value=9.1

* * *

Let's look at some compounds and their measured CC50.
Protocol Summary: GSK inMac assay, host cell toxicity readout (LD MAC)
Assay type: cell-based, human
Run Parameters: human; footnote c; read-out: THP-1 Host Cell CC50
Outcome Measure: CC50

compound="C=CCCc1n[nH]c2c1C(c1ccc(F)cc1)N(c1ccc(OC)cc1)C2=O (stereo not shown)" outcome_measure=CC50 assay_value="3.2 µM"
compound="Cc1cc(F)ccc1C1c2c(CC(C)C)n[nH]c2C(=O)N1c1ccc(Br)cc1 (stereo not shown)" outcome_measure=CC50 assay_value="3 µM"
compound="CC(C)Cc1n[nH]c2c1C(c1ccc(F)cc1)N(c1ccc3c(c1)OCO3)C2=O (stereo not shown)" outcome_measure=CC50 assay_value="25.1 µM"
compound="CC(C)Cc1n[nH]c2c1C(c1ccc(F)cc1)N(c1ccc(C(=O)O)cc1)C2=O (stereo not shown)" outcome_measure=CC50 assay_value="> 50 µM"

* * *

Measurement Target: human serum albumin (Homo sapiens)
Sequence (P02768 25-609): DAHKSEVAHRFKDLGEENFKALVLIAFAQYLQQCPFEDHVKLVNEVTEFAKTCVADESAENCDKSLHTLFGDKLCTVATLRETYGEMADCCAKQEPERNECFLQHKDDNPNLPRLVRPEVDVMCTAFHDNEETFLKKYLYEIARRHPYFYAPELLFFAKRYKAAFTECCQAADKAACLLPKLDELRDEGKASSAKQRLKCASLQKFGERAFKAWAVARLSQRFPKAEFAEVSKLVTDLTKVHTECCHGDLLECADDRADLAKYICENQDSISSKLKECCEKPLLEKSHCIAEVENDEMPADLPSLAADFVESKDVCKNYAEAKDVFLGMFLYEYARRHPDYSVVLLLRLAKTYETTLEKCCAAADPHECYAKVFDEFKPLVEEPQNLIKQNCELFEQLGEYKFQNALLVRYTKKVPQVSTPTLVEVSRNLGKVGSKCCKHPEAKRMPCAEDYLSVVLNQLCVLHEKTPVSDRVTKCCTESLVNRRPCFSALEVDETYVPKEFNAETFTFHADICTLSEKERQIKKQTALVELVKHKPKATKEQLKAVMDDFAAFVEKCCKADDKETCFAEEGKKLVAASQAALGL
Protocol Summary: Human serum albumin (HSA) binding, chromatographic
Format: in vitro ADME
Outcome Measure: HSA Binding (%)

molecule="COc1ccc(N2C(=O)c3[nH]nc(CC(C)C)c3C2c2ccc(Cl)cc2)cc1 (stereo not shown) [Compound 47]" measurement_target="human serum albumin (Homo sapiens)" assay_value=96.9
molecule="COc1ccc(N2C(=O)c3[nH]nc(CC(C)C)c3C2C2CCCCC2)cc1 (stereo not shown) [Compound 52]" measurement_target="human serum albumin (Homo sapiens)" assay_value=97.6
molecule="CC(C)Cc1n[nH]c2c1C(c1ccc(F)cc1)N(c1ccc(OC(F)(F)F)cc1)C2=O (stereo not shown) [Compound 20]" measurement_target="human serum albumin (Homo sapiens)" assay_value=98.1
molecule="C=C(C)CCc1n[nH]c2c1C(c1ccc(F)cc1)N(c1ccc(OC)cc1)C2=O (stereo not shown) [Compound 13]" measurement_target="human serum albumin (Homo sapiens)" assay_value=96.8
molecule="CC(C)Cc1n[nH]c2c1C(c1ccc(F)cc1)N(c1ccc3c(c1)OCCO3)C2=O (stereo not shown) [Compound 45]" measurement_target="human serum albumin (Homo sapiens)" assay_value=96.2
molecule="COc1ccc(N2C(=O)c3[nH]nc(CC(C)C)c3C2c2nccs2)cc1 (stereo not shown) [Compound S5]" measurement_target="human serum albumin (Homo sapiens)" assay_value=89.5
molecule="COc1ccc(N2C(=O)c3[nH]nc(CC(C)C)c3C2c2cc(F)nc(F)c2)cc1 (stereo not shown) [Compound S14]" measurement_target="human serum albumin (Homo sapiens)" assay_value=93
molecule="COc1ccc(N2C(=O)c3[nH]nc(CC(C)C)c3C2c2ccc(F)cc2)c(OC)c1 (stereo not shown) [Compound 43]" measurement_target="human serum albumin (Homo sapiens)" assay_value=96.2
molecule="COc1ccccc1N1C(=O)c2[nH]nc(CC(C)C)c2C1c1ccc(F)cc1 (stereo not shown) [Compound 29]" measurement_target="human serum albumin (Homo sapiens)" assay_value=97.5
molecule="COc1ccc(N2C(=O)c3[nH]nc(CC(C)C)c3C2c2ccccc2OC)cc1 (stereo not shown) [Compound 57]" measurement_target="human serum albumin (Homo sapiens)" assay_value=95.7
molecule="COCCN1C(=O)c2[nH]nc(CC(C)C)c2C1c1ccc(F)cc1 (stereo not shown) [Compound 41]" measurement_target="human serum albumin (Homo sapiens)" assay_value=90.2
molecule="COc1ccc(N2C(=O)c3[nH]nc(CC(C)C)c3C2c2cccs2)cc1 (stereo not shown) [Compound S2]" measurement_target="human serum albumin (Homo sapiens)" assay_value=95.9
molecule="COC1CCC(N2C(=O)c3[nH]nc(CC(C)C)c3C2c2ccc(F)cc2)CC1 (stereo not shown) [Compound 36]" measurement_target="human serum albumin (Homo sapiens)" assay_value=92.1

* * *

Tested on: HepG2 cells
Protocol Summary: HepG2 cytotoxicity
Assay type: cell-based
Run Parameters: Homo sapiens; toxicity against HepG2 cells
pEC50: −log10 of the molar value.
// pEC50 lookup, one value per entry
Outcome Measure: pEC50

compound="CC(C)Cc1n[nH]c2c1C(c1ccc(F)cc1)N(c1ccccn1)C2=O (stereo not drawn)" outcome_measure=pEC50 assay_value="< 4.00"
compound="COc1ccc(N2C(=O)c3[nH]nc(CC(C)C)c3C2c2cncc(OC)c2)cc1 (stereo not drawn)" outcome_measure=pEC50 assay_value="< 4.00"
compound="COc1ccc(N2C(=O)c3[nH]nc(CC(C)C)c3C2c2cncs2)cc1 (stereo not drawn)" outcome_measure=pEC50 assay_value="< 4.00"

* * *

Protocol Summary: GSK inMac assay, host cell toxicity readout (LD MAC)
Type: cell-based, human
Run Parameters: human; footnote c; read-out: THP-1 Host Cell CC50
Listed here: items and their measured CC50.
Outcome Measure: CC50

compound="COc1ccc(N2C(=O)c3[nH]nc(CC(C)C)c3C2c2nccs2)cc1 (stereo not drawn)" outcome_measure=CC50 assay_value="> 50 µM"
compound="COc1ccc(N2C(=O)c3[nH]nc(CC(C)C)c3C2c2ccccc2OC)cn1 (stereo not drawn)" outcome_measure=CC50 assay_value="> 20 µM"
compound="CC(C)Cc1n[nH]c2c1C(c1ccc(F)cc1)N(Cc1ccc(C(F)(F)F)cn1)C2=O (stereo not drawn)" outcome_measure=CC50 assay_value="> 50 µM"
compound="COc1ccc(OC)c(N2C(=O)c3[nH]nc(CC(C)C)c3C2c2ccc(F)cc2)c1 (stereo not drawn)" outcome_measure=CC50 assay_value="≥ 50.1 µM"
compound="CC(C)Cc1n[nH]c2c1C(c1ccc(F)cc1)N(c1ccc(-n3ccnc3)cc1)C2=O (stereo not drawn)" outcome_measure=CC50 assay_value="> 50 µM"
compound="COCCN1C(=O)c2[nH]nc(CC(C)C)c2C1c1ccc(F)cc1 (stereo not drawn)" outcome_measure=CC50 assay_value="> 50 µM"
compound="COc1ccccc1C1c2c(CC(C)C)n[nH]c2C(=O)N1c1ccc2c(c1)OCO2 (stereo not drawn)" outcome_measure=CC50 assay_value="> 20 µM"
compound="CC(C)Cc1n[nH]c2c1C(c1ccccc1Cl)N(CCN1CCCC1)C2=O (stereo not drawn)" outcome_measure=CC50 assay_value="> 50 µM"
compound="COc1ccc(N2C(=O)c3[nH]nc(CC(C)C)c3C2c2ccncn2)cc1 (stereo not drawn)" outcome_measure=CC50 assay_value="> 50 µM"

* * *

Protocol Summary: GSK inMac assay, host cell toxicity readout (LD MAC)
Format: cell-based, human
Run Parameters: human; footnote c; read-out: THP-1 Host Cell CC50
Outcome Measure: log10 of CC50 (log10 of the value in µM)

compound="CC(C)Cc1n[nH]c2c1C(c1cccc(C(F)(F)F)c1)N(c1ccc(F)cc1)C2=O (stereo not drawn)" assay_value=1.40
compound="C=C(C)CCc1n[nH]c2c1C(c1ccc(F)cc1)N(c1ccc(OC)cc1)C2=O (stereo not drawn)" assay_value=0.20
compound="CC(C)Cc1n[nH]c2c1C(c1ccccc1Br)N(c1ccc(Br)cc1)C2=O (stereo not drawn)" assay_value=0.70
compound="CC(C)Cc1n[nH]c2c1C(c1cccc(Cl)c1)N(c1ccc(C(C)(C)C)cc1)C2=O (stereo not drawn)" assay_value=1.20
compound="CC(C)Cc1n[nH]c2c1C(c1ccc(F)cc1)N(c1ccc(F)cc1)C2=O (stereo not drawn)" assay_value=1.40
compound="CC(C)Cc1n[nH]c2c1C(c1ccccc1Cl)N(c1ccc3c(c1)OCO3)C2=O (stereo not drawn)" assay_value=1.09
compound=COc1ccc(N2C(=O)c3[nH]nc(CC(C)C)c3[C@@H]2c2ccccc2Br)cn1 assay_value=1.30
compound="COc1ccccc1N1C(=O)c2[nH]nc(CC(C)C)c2C1c1cccc(Cl)c1 (stereo not drawn)" assay_value=1.20
compound="COc1ccc(N2C(=O)c3[nH]nc(CC4CCCCC4)c3C2c2ccc(F)cc2)cc1 (stereo not drawn)" assay_value=1.30
compound="COc1ccc(N2C(=O)c3[nH]nc(CC(C)C)c3C2c2ccc(F)c(F)c2)cc1 (stereo not drawn)" assay_value=1.40
compound="COc1ccc(N2C(=O)c3[nH]nc(CCc4ccccc4)c3C2c2ccc(F)cc2)cc1 (stereo not drawn)" assay_value=1.40
compound="COc1ccc(N2C(=O)c3[nH]nc(CC(C)C)c3C2c2cnccc2OC)cc1 (stereo not drawn)" assay_value=1.30
compound="COc1ccccc1N1C(=O)c2[nH]nc(CC(C)C)c2C1c1ccccc1Br (stereo not drawn)" assay_value=1.40
compound="COc1cccc(N2C(=O)c3[nH]nc(CC(C)C)c3C2c2cccc(Cl)c2)c1 (stereo not drawn)" assay_value=1.40
compound="CCC(C)(COC(C)=O)CN1C(=O)c2[nH]nc(CC(C)C)c2C1c1ccc(F)cc1 (stereo not drawn)" assay_value=1.40
compound="COc1ccc(N2C(=O)c3[nH]nc(CC(C)C)c3C2c2ccccc2Br)c(OC)c1 (stereo not drawn)" assay_value=1.20
compound="COc1ccc(N2C(=O)c3[nH]nc(CC(C)C)c3C2c2cccc(C(F)(F)F)c2)cc1 (stereo not drawn)" assay_value=1.20
compound="COc1cccc(N2C(=O)c3[nH]nc(CC(C)C)c3C2c2ccccc2Cl)c1 (stereo not drawn)" assay_value=1.20
compound="COc1ccc(N2C(=O)c3[nH]nc(CC(C)C)c3C2c2cccnc2OC)cc1 (stereo not drawn)" assay_value=1.00
compound="COc1ccc(N2C(=O)c3[nH]nc(CC(C)C)c3C2c2cccc(OC)c2)cc1 (stereo not drawn)" assay_value=1.30
